- Read-out: Nuclear factor erythroid 2-related factor 2 (Homo sapiens) (UniProt Q16236)
- Sequence (Q16236 whole entry, looked up): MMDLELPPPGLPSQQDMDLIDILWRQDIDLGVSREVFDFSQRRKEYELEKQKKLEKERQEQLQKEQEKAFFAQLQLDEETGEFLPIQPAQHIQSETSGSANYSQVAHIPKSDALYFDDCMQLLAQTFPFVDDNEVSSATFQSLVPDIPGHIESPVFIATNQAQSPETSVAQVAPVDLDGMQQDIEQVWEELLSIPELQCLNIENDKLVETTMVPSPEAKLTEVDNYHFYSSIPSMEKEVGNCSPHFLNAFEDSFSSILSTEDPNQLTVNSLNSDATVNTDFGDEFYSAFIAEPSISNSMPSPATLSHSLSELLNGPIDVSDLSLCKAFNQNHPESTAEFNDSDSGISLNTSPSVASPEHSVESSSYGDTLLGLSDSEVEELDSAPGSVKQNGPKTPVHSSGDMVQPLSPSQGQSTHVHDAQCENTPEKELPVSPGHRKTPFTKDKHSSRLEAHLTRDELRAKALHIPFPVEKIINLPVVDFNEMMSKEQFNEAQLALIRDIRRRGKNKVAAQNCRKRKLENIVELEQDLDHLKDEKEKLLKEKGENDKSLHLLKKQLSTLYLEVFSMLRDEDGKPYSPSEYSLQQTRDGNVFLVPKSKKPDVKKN
- EXPERIMENTAL DETAILS: LTEA_HepaRG_NFE2L2: Life Technologies and Expression Analysis (LTEA) Assay for Nuclear factor erythroid 2-related factor 2 (NFE2L2) Transcription Factor using HepaRG (AID 2283527)
- PARTICULARS: mRNA level, 48 h; actives raise or lower the signal
Calls of active or inactive are those of the source. How the source made its calls: active means hit-call score of the fitted dose curve at least 0.9, where 1 is the maximum; inactive means score below 0.9.
REPORTED PROPERTY: AC50

- COMPOUND: "O=S(=O)(O)C(F)(F)C(F)(F)C(F)(F)C(F)(F)C(F)(F)C(F)(F)F"
  MEASURED: "0.979 µM (active)"
- COMPOUND: "CCOP(=S)(OCC)SCSC(C)(C)C"
  MEASURED: "inactive"
- COMPOUND: "CO/C=C(/C(=O)OC)c1ccccc1COc1cccc(C(F)(F)F)n1"
  MEASURED: "21.6 µM (active)"
- COMPOUND: "Oc1ccc(Cl)cc1Cl"
  MEASURED: "inactive"
- COMPOUND: "Cc1cccc([N+](=O)[O-])c1"
  MEASURED: "inactive"
- COMPOUND: "O=C(NC(=O)c1c(F)cccc1F)Nc1cc(Cl)c(OC(F)(F)C(F)F)c(Cl)c1"
  MEASURED: "inactive"
- COMPOUND: "Cc1ccccc1CO[C@@H]1C[C@@]2(C(C)C)CC[C@]1(C)O2"
  MEASURED: "inactive"
- COMPOUND: "ClC1=C(Cl)[C@]2(Cl)[C@@H]3[C@@H](Cl)[C@H]4O[C@H]4[C@@H]3C1(Cl)C2(Cl)Cl"
  MEASURED: "inactive"
- COMPOUND: "CCCCCCCCCC[N+](C)(C)CCCCCCCCCC"
  MEASURED: "75 µM (active)"
- COMPOUND: "Cc1cc(O)ccc1Cl"
  MEASURED: "inactive"
- COMPOUND: "Oc1c(Cl)c(Cl)c(Cl)c(Cl)c1Cl"
  MEASURED: "inactive"
- COMPOUND: "ClC(Cl)=C(c1ccc(Cl)cc1)c1ccc(Cl)cc1"
  MEASURED: "inactive"
- COMPOUND: "ClC1=C(Cl)[C@]2(Cl)[C@@H]3[C@@H]4C[C@@H]([C@H]5O[C@@H]45)[C@@H]3[C@@]1(Cl)C2(Cl)Cl"
  MEASURED: "0.0292 µM (active)"
- COMPOUND: "O=S(=O)(O)C(F)(F)C(F)(F)C(F)(F)C(F)(F)F"
  MEASURED: "inactive"
- COMPOUND: "c1ccc(-c2ccccc2)cc1"
  MEASURED: "inactive"
- COMPOUND: "CCSC(=O)N(CC)C1CCCCC1"
  MEASURED: "inactive"
- COMPOUND: "O=C(O)C(F)(F)C(F)(F)C(F)(F)C(F)(F)C(F)(F)C(F)(F)C(F)(F)C(F)(F)F"
  MEASURED: "74.9 µM (active)"
- COMPOUND: "O=NN(c1ccccc1)c1ccccc1"
  MEASURED: "inactive"
- COMPOUND: "CCOCCOC(C)=O"
  MEASURED: "inactive"
- COMPOUND: "CCC(=O)O[C@H]1CC[C@H]2[C@@H]3CCC4=CC(=O)CC[C@]4(C)[C@H]3CC[C@]12C"
  MEASURED: "inactive"
- COMPOUND: "Cc1ccc(O)c(C)c1"
  MEASURED: "inactive"
- COMPOUND: "Cc1cc2c3c(c1)C(c1ccccc1)=N[C@@H](NC(=O)c1ccncc1)C(=O)N3CC2"
  MEASURED: "50 µM (active)"
- COMPOUND: "c1cc2ccc3cccc4ccc(c1)c2c34"
  MEASURED: "inactive"
- COMPOUND: "O=C(N[C@H]1CN2CCC1CC2)c1cc2ccoc2cn1"
  MEASURED: "inactive"
- COMPOUND: "CC(C)(c1ccccc1)c1ccc(O)cc1"
  MEASURED: "inactive"
- COMPOUND: "O=C(O)C(F)(F)C(F)(F)C(F)(F)C(F)(F)C(F)(F)C(F)(F)C(F)(F)C(F)(F)C(F)(F)F"
  MEASURED: "inactive"
- COMPOUND: "CCC(C)(c1ccc(O)cc1)c1ccc(O)cc1"
  MEASURED: "inactive"
- COMPOUND: "CN(C)CCO"
  MEASURED: "inactive"
- COMPOUND: "COS(=O)(=O)OC"
  MEASURED: "inactive"
- COMPOUND: "CC(C)C(=O)OCC(C)(C)C(OC(=O)C(C)C)C(C)C (stereo unspecified)"
  MEASURED: "inactive"
- COMPOUND: "Nn1cnnc1"
  MEASURED: "inactive"
- COMPOUND: "CC(c1ccc(O)cc1)(c1ccc(O)cc1)c1ccc(O)cc1"
  MEASURED: "73.9 µM (active)"
- COMPOUND: "Oc1ccc(C(c2ccc(O)cc2)(C(F)(F)F)C(F)(F)F)cc1"
  MEASURED: "inactive"
- COMPOUND: "Cc1cccc(C)c1N"
  MEASURED: "inactive"
- COMPOUND: "C[C@]12CCC(=O)C=C1CC[C@@H]1[C@@H]2CC[C@@]2(C)[C@H]1CC[C@]2(C)O"
  MEASURED: "inactive"
- COMPOUND: "CCCCCCCCCc1ccc(O)cc1"
  MEASURED: "inactive"
- COMPOUND: "CC#Cc1cc(C)nc(Nc2ccccc2)n1"
  MEASURED: "30.2 µM (active)"
- COMPOUND: "C=CC(=O)NCNC(=O)C=C"
  MEASURED: "inactive"
- COMPOUND: "CCOC(=O)C(O)(c1ccc(Cl)cc1)c1ccc(Cl)cc1"
  MEASURED: "inactive"
- COMPOUND: "CCC(C)(CC)c1cc(NC(=O)c2c(OC)cccc2OC)on1"
  MEASURED: "14.9 µM (active)"
- COMPOUND: "Cc1ccccc1O"
  MEASURED: "inactive"

* * *

- EXPERIMENTAL DETAILS: APR_HepG2_MitoMembPot_24hr: Apredica 24-hour HepG2 Assay for Mitochondrial Membrane Potential (AID 2282911)
- PARTICULARS: imaging, actives raise or lower the signal
- Experimental: APR_HepG2_24hr is a cell-based, multiplexed-readout assay that uses HepG2, a human liver cell line, with measurements taken at 24 hours after chemical dosing in a 384-well plate.APR_HepG2_MitoMembPot_24hr is one of 10 assay component(s) measured or calculated from the APR_HepG2_24hr assay. […] This assay endpoint, APR_HepG2_MitoMembPot_24hr, was analyzed with bidirectional fitting relative to DMSO as the negative control and baseline of activity. […]
Active and inactive are the calls of the source. Rule for the calls: active = hit-call score of the fitted dose curve at least 0.9, where 1 is the maximum; inactive = score below 0.9.

- SMILES ENTRY: "O=C(NC(=O)c1cc(F)c(F)cc1Cl)Nc1cc(F)ccc1N1CCC(C(=O)O)CC1"
  outcome: "inactive"
- SMILES ENTRY: "O=C(O)C(F)(F)C(F)(F)C(F)(F)C(F)(F)C(F)(F)C(F)(F)C(F)(F)C(F)(F)F"
  outcome: "inactive"
- SMILES ENTRY: "Cc1ccc(O)c(C)c1"
  outcome: "inactive"

* * *

- Read-out: Keratin 19 (KRT19), KRT19 (gene 3880)
- EXPERIMENTAL DETAILS: LTEA_HepaRG_KRT19: Life Technologies and Expression Analysis (LTEA) Assay for Keratin 19 (KRT19) using HepaRG (AID 2283512)
- PARTICULARS: mRNA level, 48 h; actives raise or lower the signal
Calls of active or inactive are those of the source. Rule for the calls: active = hit-call score of the fitted dose curve at least 0.9, where 1 is the maximum; inactive = score below 0.9.

- SMILES ENTRY: "Cc1cccc(C)c1N"
  AC50: "inactive"
- SMILES ENTRY: "Cc1cc2c3c(c1)C(c1ccccc1)=N[C@@H](NC(=O)c1ccncc1)C(=O)N3CC2"
  AC50: "inactive"
- SMILES ENTRY: "CCSC(=O)N(CC)C1CCCCC1"
  AC50: "inactive"
- SMILES ENTRY: "Nc1ccc(-c2ccc(N)cc2)cc1"
  AC50: "inactive"
- SMILES ENTRY: "CCCCCCOC(=O)c1ccccc1C(=O)OCCCCCC"
  AC50: "inactive"
- SMILES ENTRY: "C[C@]12CCC(=O)C=C1CC[C@@H]1[C@@H]2CC[C@]2(C)C(=O)CC[C@@H]12"
  AC50: "inactive"
- SMILES ENTRY: "Nn1cnnc1"
  AC50: "inactive"
- SMILES ENTRY: "O=C(O)C(F)(F)C(F)(F)C(F)(F)C(F)(F)C(F)(F)C(F)(F)C(F)(F)C(F)(F)C(F)(F)F"
  AC50: "inactive"
- SMILES ENTRY: "c1cc2ccc3cccc4ccc(c1)c2c34"
  AC50: "inactive"
- SMILES ENTRY: "CC(c1ccc(O)cc1)(c1ccc(O)cc1)c1ccc(O)cc1"
  AC50: "50 µM (active)"
- SMILES ENTRY: "Oc1c(Cl)c(Cl)c(Cl)c(Cl)c1Cl"
  AC50: "6.33 µM (active)"
- SMILES ENTRY: "ClC1=C(Cl)[C@]2(Cl)[C@@H]3[C@@H](Cl)[C@H]4O[C@H]4[C@@H]3C1(Cl)C2(Cl)Cl"
  AC50: "inactive"
- SMILES ENTRY: "O=S(=O)(O)C(F)(F)C(F)(F)C(F)(F)C(F)(F)F"
  AC50: "inactive"

Taken from PubChem BioAssay (EPA / NIEHS).
